Data credit: BindingDB's records for doi:10.1016/s1074-5521(97)90073-9

The following compounds each carry a recorded pIC50 for Cathepsin D (Homo sapiens).
When answering, recall that pIC50 equals minus log10 of the concentration in mol/L, and write that number alone.

// below: answered compounds
Cc1ccc(CCN(CC(O)[C@@H](NC(=O)COc2cc(Cl)c(Cl)cc2Cl)c2ccccc2)C(=O)CCN2C(=O)c3ccccc3C2=O)cc1 (stereo partly specified); 6.64
O=C(COc1ccc(Cl)c(Cl)c1)N[C@@H](c1ccccc1)C(O)CN(CCc1ccc2c(c1)OCO2)C(=O)CCN1C(=O)c2ccccc2C1=O (stereo partly specified); 7.72

Request: pIC50, test system Cathepsin D (Homo sapiens), entry O=C(COc1ccc(Cl)cc1Cl)N[C@@H](c1ccccc1)C(O)CN(CCc1ccc2c(c1)OCO2)C(=O)CCN1C(=O)c2ccccc2C1=O (stereo partly specified) 7.85

Request: pIC50, test system Cathepsin D (Homo sapiens), entry O=C(COc1ccc(Cl)c(Cl)c1)N[C@@H](c1ccccc1)C(O)CN(CCc1ccc(Cl)cc1Cl)C(=O)CCN1C(=O)c2ccccc2C1=O (stereo partly specified) 7.74

Request: pIC50, test system Cathepsin D (Homo sapiens), entry O=C(COc1cccc(Cl)c1)N[C@@H](c1ccccc1)C(O)CN(CCc1ccc2c(c1)OCO2)C(=O)CCN1C(=O)c2ccccc2C1=O (stereo partly specified) 7.70

* * *

Biological target: Cathepsin D (Homo sapiens)
Sequence (P07339 65-162 limits assumed): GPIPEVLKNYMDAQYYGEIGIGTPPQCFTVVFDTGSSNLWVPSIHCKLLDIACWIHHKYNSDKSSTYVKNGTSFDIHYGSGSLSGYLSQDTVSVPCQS
Sequence (P07339 169-412 limits assumed): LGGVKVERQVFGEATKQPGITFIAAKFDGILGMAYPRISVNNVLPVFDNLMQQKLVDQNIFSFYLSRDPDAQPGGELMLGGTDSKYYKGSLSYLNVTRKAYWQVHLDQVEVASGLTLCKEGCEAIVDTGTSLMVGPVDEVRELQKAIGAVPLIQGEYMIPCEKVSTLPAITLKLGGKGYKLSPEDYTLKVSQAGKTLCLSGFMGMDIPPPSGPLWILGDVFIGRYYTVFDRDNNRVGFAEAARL
Assay: High Through-Put Fluorescence Assay
Settings: pH 3.7
measure_name: Ki (nM)
I only need the number, in nM, no unit after it.

// below: answered compounds
COc1ccc(C(=O)N[C@@H](c2ccccc2)C(O)CN(CCc2ccc3c(c2)OCO3)C(=O)CCN2C(=O)c3ccccc3C2=O)c(Cl)c1OC (stereo partly drawn) [EHJ]; 111
O=C(COc1cccc(Cl)c1)N[C@@H](c1ccccc1)C(O)CN(CCc1ccc2c(c1)OCO2)C(=O)CCN1C(=O)c2ccccc2C1=O (stereo partly drawn) [EHR]; 15
O=C(COc1cc(Cl)c(Cl)cc1Cl)N[C@@H](c1ccccc1)C(O)CN(CCc1ccc2c(c1)OCO2)C(=O)CCN1C(=O)c2ccccc2C1=O (stereo partly drawn) [EHD]; 73
O=C(CCn1c(=O)oc2ccccc21)N[C@@H](c1ccccc1)C(O)CN(CCc1ccc2c(c1)OCO2)C(=O)CCc1ccc(Cl)c(Cl)c1 (stereo partly drawn) [EFA]; 171
COc1cccc(CCN(CC(O)[C@@H](NC(=O)Cn2c(O)csc2=S)c2ccccc2)C(=O)NC2CCCCC2)c1 (stereo partly drawn) [FBB]; 356

I have this compound here, COc1cc(Br)c(C(=O)N[C@@H](c2ccccc2)C(O)CN(CCc2ccc3c(c2)OCO3)C(=O)CCN2C(=O)c3ccccc3C2=O)cc1OC (stereo partly drawn) [EHS] , and I need its recorded Ki. 59

I have this compound here, O=C(COc1ccc(Cl)c(Cl)c1)N[C@@H](c1ccccc1)C(O)CN(CCc1ccc2c(c1)OCO2)C(=O)CCN1C(=O)c2ccccc2C1=O (stereo partly drawn) [EHO] , and I need its recorded Ki. 15
